Reference for the values: patent US20240018135A1

Listed next: entries and their corresponding melting point.

{"columns": ["compound", "melting point"],
 "data": [
  ["CC(=O)Nc1ncc(CN2CCCC(C(=O)Nc3ccc(C(C)C)cc3)C2)s1 (centres unmarked)", "234 to 236 °C"],
  ["CC(=O)Nc1ncc(CN2CCC(C(=O)NC(C)c3ccccc3)CC2)s1 (centres unmarked)", "178 to 179 °C"],
  ["CC(=O)Nc1ncc(CN2CCN(CC(=O)Nc3nccs3)CC2)s1", "237 to 240 °C"],
  ["CC(=O)Nc1ncc(CN2CCC(=CC(=O)Nc3ccc(Cl)cc3)CC2)s1", "225 to 228 °C"]
]}

# ---- query compound ----
Field melting point (entry "CC(=O)Nc1ncc(CN2CCN(CC(=O)Nc3ccc4[nH]ccc4c3)CC2)s1" ) reads 216 to 219 °C

====

- tested-target: Human OGA (recombinant hOGA protein) (Homo sapiens (Human))
- run-description: Human OGA enzyme activity assay (fluorescence, 4-Methylumbelliferyl N-acetyl-β-D-glucosaminide substrate)
- setup-conditions: Table 1
reported-property: pIC50
The meaning of pIC50 here: minus log10 of the concentration in molar units.

{"columns": ["molecule", "tested-target", "pIC50"],
 "data": [
  ["CC(=O)Nc1ncc(CN2CCN(CC(=O)Nc3ccc(N4CCN(C(C)=O)CC4)cc3)CC2C)s1 (centres unmarked)", "Human OGA (recombinant hOGA protein) (Homo sapiens (Human))", 7.15]
]}

Field pIC50 (entry "CC(=O)Nc1ncc(CN2CCC(=CC(=O)Nc3ccc(Cl)cc3)CC2)s1" ) reads 6.85

Field pIC50 (entry "CC(=O)Nc1ncc(CN2CCN(CC(=O)Nc3ccccc3)CC2)s1" ) reads 5.59

====

Listed next: entries and their corresponding % of inhibition.
- tested-target: Human OGA (recombinant hOGA protein) (Homo sapiens (Human))
- run-description: Human OGA enzyme activity assay (fluorescence, 4-Methylumbelliferyl N-acetyl-β-D-glucosaminide substrate)
- Type: biochemical
- setup-conditions: Table 1, test concentration not given

Solved cases below.
{"columns": ["molecule", "tested-target", "% of inhibition"],
 "data": [
  ["COc1ccc2nc(NC(=O)CN3CCN(Cc4cnc(NC(C)=O)s4)CC3)sc2c1 [Compound A-28]", "Human OGA (recombinant hOGA protein) (Homo sapiens (Human))", "19.2%"],
  ["CC(=O)Nc1ncc(CN2CCC(C(=O)Nc3cnccn3)CC2)s1 [Compound B-4]", "Human OGA (recombinant hOGA protein) (Homo sapiens (Human))", "66.9%"]
]}

# ---- query molecule ----
Field % of inhibition (entry CC(=O)Nc1ncc(CN2CCN(CC(=O)Nc3ccc(Cl)cc3Br)CC2)s1 [Compound A-13] ) reads 85.2%

====

- tested-target: Human OGA (recombinant hOGA protein) (Homo sapiens (Human), UniProt O60502)
- Sequence (O60502 whole entry): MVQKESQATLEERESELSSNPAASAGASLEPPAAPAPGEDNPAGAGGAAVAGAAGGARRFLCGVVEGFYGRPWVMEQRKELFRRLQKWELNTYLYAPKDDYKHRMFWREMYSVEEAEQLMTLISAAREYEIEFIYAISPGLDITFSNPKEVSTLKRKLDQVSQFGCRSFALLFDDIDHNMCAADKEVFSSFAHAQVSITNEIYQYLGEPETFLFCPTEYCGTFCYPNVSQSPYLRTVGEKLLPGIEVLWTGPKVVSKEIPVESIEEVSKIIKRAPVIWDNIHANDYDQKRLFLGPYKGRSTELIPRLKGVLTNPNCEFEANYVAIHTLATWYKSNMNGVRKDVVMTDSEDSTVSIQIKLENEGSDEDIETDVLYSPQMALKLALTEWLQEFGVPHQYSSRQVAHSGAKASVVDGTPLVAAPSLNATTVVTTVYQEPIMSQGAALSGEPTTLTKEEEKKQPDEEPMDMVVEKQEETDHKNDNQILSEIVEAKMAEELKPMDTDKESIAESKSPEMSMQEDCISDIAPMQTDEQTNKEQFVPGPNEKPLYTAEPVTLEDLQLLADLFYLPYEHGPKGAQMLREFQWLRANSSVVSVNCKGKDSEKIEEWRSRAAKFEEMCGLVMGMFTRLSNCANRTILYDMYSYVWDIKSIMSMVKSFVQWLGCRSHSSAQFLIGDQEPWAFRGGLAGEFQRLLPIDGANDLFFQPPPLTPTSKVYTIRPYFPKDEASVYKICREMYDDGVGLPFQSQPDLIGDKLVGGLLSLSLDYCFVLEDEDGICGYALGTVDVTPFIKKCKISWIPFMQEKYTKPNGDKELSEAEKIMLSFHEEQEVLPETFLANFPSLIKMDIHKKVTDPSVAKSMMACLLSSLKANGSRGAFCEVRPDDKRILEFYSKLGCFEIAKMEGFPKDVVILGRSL
- run-description: Human OGA enzyme activity assay (fluorescence, 4-Methylumbelliferyl N-acetyl-β-D-glucosaminide substrate)
- setup-conditions: Table 1
The label label 1 is reserved for IC50 strictly under 0.4 µM; label 0 covers values equal to or above it.

The following molecules have reported results that may help.
{"columns": ["molecule", "group-label"],
 "data": [
  ["CC(=O)Nc1ncc(CN2CCN(CC(=O)Nc3ccc(Cc4ccccc4)cc3)CC2C)s1 (centres unmarked) [Compound A-39]", "label 1"],
  ["COc1ccc(NC(=O)C=C2CCN(Cc3cnc(NC(C)=O)s3)CC2)cc1 [Compound C-5]", "label 0"],
  ["CC(=O)Nc1ncc(CN2CCCC(C(=O)Nc3ccc(F)cc3)C2)s1 (centres unmarked) [Compound B-17]", "label 1"]
]}

-- ask Item CC(=O)Nc1ncc(CN2CCC(C(=O)NC(C)c3ccc4c(c3)OCO4)CC2)s1 (centres unmarked) [Compound B-9] : IC50 beneath 0.4 µM, strictly?
-- reply label 0

-- ask Item CC(=O)Nc1ncc(CN2CCN(CC(=O)NC3CCCCC3)CC2)s1 [Compound A-20] : IC50 beneath 0.4 µM, strictly?
-- reply label 0

-- ask Item CC(=O)Nc1ncc(CN2CCC(C(=O)NCc3ccccc3)CC2)s1 [Compound B-7] : IC50 beneath 0.4 µM, strictly?
-- reply label 0

-- ask Item CC(=O)Nc1ncc(CN2CCN(CC(=O)Nc3ccc(F)cc3)CC2)s1 [Compound A-11] : IC50 beneath 0.4 µM, strictly?
-- reply label 0

-- ask Item CC(=O)Nc1ncc(CN2CCN(CC(=O)Nc3ccc(Cc4ccccc4)cc3)CC2)s1 [Compound A-38] : IC50 beneath 0.4 µM, strictly?
-- reply label 1

====

Listed next: entries and their corresponding % of inhibition.
- tested-target: Human OGA (recombinant hOGA protein) (Homo sapiens (Human))
- run-description: Human OGA enzyme activity assay (fluorescence, 4-Methylumbelliferyl N-acetyl-β-D-glucosaminide substrate)
- Assay type: biochemical
- setup-conditions: Table 1, test concentration not given
Report the value in % with no unit label.

{"columns": ["molecule", "reported-property", "output-unit", "readout-number"],
 "data": [
  ["CC(=O)Nc1ncc(CN2CCN(CC(=O)Nc3ccc(N4CCN(C(C)=O)CC4)cc3)CC2C)s1 (stereo not shown) [Compound A-37]", "% of inhibition", "%", 98.4],
  ["CC(=O)Nc1ncc(CN2CCN(CC(=O)Nc3ccccc3)CC2C)s1 (stereo not shown) [Compound A-32]", "% of inhibition", "%", 97.0],
  ["CC(=O)Nc1ncc(CN2CCN(CC(=O)Nc3ccc(N4CCN(C(C)=O)CC4)cc3)CC2)s1 [Compound A-36]", "% of inhibition", "%", 96.2]
]}

# ---- query molecule ----
Field % of inhibition (entry COc1ccc(CNC(=O)C=C2CCN(Cc3cnc(NC(C)=O)s3)CC2)cc1 [Compound C-7] ) reads 98.2

====

- tested-target: Human OGA (recombinant hOGA protein) (Homo sapiens (Human))
- run-description: Human OGA enzyme activity assay (fluorescence, 4-Methylumbelliferyl N-acetyl-β-D-glucosaminide substrate)
- Type: biochemical
- setup-conditions: Table 1, test concentration not given
reported-property: % of inhibition (%)
Report the value in % with no unit label.

Solved cases below.
{"columns": ["smiles-data", "reported-property", "readout-number"],
 "data": [
  ["CC(=O)Nc1ncc(CN2CCC(C(=O)NCc3ccccc3)CC2)s1", "% of inhibition", 88.2],
  ["CC(=O)Nc1ncc(CN2CCN(CC(=O)NC3CCCCC3)CC2)s1", "% of inhibition", 89.0]
]}

# ---- query compound ----
Field % of inhibition (entry "CC(=O)Nc1ncc(CN2CCC(C(=O)Nc3ccc(C(C)C)cc3)CC2)s1" ) reads 91.8

====

- tested-target: Human OGA (recombinant hOGA protein) (Homo sapiens (Human))
- run-description: Human OGA enzyme activity assay (fluorescence, 4-Methylumbelliferyl N-acetyl-β-D-glucosaminide substrate)
- setup-conditions: Table 1
reported-property: IC50
Be sure to follow the number with its unit.

Field IC50 (entry "CC(=O)Nc1ncc(CN2CCN(CC(=O)Nc3ccc(N4CCN(C(C)=O)CC4)cc3)CC2)s1" ) reads 1040 nM

Field IC50 (entry CC(=O)Nc1ncc(CN2CCCC(C(=O)Nc3ccccc3)C2)s1 (centres unmarked) ) reads 230 nM

Field IC50 (entry "CC(=O)Nc1ccc(NC(=O)CN2CCN(Cc3cnc(NC(C)=O)s3)CC2)cc1" ) reads 1250 nM

Field IC50 (entry CC(=O)Nc1ncc(CN2CCN(CC(=O)Nc3ccc(F)cc3)CC2C)s1 (centres unmarked) ) reads 230 nM

Field IC50 (entry "CC(=O)Nc1ncc(CN2CCC(=CC(=O)Nc3ccccc3)CC2)s1" ) reads 310 nM
